# system.under.test: Nav 1.7 (Homo sapiens (Human))
# method.summary: Nav 1.7 in vitro PX assay, PatchXpress whole cell voltage clamp
# Format: cell-based
# condition.context: HEK 293 cells stably transfected with human Nav1.7; partially inactivated state (20 to 50% inactivation)
pIC50: −log10 of the molar value.
value.kind: pIC50

Past entries and their recorded results:
compound	system.under.test	pIC50
COc1ccc(F)cc1N1C(=O)COc2cc(S(=O)(=O)Nc3nccs3)ccc21	Nav 1.7 (Homo sapiens (Human))	6.27
O=C1COc2cc(S(=O)(=O)Nc3nccs3)ccc2N1c1ccc(C(F)(F)F)cc1Br	Nav 1.7 (Homo sapiens (Human))	6.46
O=S(=O)(Nc1nccs1)c1ccc2c(c1)OCCN2c1ccccc1OC(F)F [Example 179, 2,2,2-Trifluoroacetate]	Nav 1.7 (Homo sapiens (Human))	6.12
COc1ccc(F)cc1N1CCOc2cc(S(=O)(=O)Nc3nccs3)ccc21	Nav 1.7 (Homo sapiens (Human))	6.80
COc1cc(-c2cccc(F)c2)ccc1N1CCOc2cc(S(=O)(=O)Nc3nccs3)ccc21	Nav 1.7 (Homo sapiens (Human))	6.11

1. O=S(=O)(Nc1nccs1)c1ccc2c(c1)OCCN2c1ccc(C(F)(F)F)c(Cl)c1
2. COc1ccc(N2CCOc3cc(S(=O)(=O)Nc4nccs4)ccc32)c(OC)c1
Which of these two has the smaller recorded pIC50: 1 or 2 ? Returns: label corresponding to the selected item.
1
(1: 4.85, 2: 5.65)

====

# system.under.test: Nav 1.5 (Homo sapiens (Human), UniProt Q14524)
# Sequence (Q14524 whole entry): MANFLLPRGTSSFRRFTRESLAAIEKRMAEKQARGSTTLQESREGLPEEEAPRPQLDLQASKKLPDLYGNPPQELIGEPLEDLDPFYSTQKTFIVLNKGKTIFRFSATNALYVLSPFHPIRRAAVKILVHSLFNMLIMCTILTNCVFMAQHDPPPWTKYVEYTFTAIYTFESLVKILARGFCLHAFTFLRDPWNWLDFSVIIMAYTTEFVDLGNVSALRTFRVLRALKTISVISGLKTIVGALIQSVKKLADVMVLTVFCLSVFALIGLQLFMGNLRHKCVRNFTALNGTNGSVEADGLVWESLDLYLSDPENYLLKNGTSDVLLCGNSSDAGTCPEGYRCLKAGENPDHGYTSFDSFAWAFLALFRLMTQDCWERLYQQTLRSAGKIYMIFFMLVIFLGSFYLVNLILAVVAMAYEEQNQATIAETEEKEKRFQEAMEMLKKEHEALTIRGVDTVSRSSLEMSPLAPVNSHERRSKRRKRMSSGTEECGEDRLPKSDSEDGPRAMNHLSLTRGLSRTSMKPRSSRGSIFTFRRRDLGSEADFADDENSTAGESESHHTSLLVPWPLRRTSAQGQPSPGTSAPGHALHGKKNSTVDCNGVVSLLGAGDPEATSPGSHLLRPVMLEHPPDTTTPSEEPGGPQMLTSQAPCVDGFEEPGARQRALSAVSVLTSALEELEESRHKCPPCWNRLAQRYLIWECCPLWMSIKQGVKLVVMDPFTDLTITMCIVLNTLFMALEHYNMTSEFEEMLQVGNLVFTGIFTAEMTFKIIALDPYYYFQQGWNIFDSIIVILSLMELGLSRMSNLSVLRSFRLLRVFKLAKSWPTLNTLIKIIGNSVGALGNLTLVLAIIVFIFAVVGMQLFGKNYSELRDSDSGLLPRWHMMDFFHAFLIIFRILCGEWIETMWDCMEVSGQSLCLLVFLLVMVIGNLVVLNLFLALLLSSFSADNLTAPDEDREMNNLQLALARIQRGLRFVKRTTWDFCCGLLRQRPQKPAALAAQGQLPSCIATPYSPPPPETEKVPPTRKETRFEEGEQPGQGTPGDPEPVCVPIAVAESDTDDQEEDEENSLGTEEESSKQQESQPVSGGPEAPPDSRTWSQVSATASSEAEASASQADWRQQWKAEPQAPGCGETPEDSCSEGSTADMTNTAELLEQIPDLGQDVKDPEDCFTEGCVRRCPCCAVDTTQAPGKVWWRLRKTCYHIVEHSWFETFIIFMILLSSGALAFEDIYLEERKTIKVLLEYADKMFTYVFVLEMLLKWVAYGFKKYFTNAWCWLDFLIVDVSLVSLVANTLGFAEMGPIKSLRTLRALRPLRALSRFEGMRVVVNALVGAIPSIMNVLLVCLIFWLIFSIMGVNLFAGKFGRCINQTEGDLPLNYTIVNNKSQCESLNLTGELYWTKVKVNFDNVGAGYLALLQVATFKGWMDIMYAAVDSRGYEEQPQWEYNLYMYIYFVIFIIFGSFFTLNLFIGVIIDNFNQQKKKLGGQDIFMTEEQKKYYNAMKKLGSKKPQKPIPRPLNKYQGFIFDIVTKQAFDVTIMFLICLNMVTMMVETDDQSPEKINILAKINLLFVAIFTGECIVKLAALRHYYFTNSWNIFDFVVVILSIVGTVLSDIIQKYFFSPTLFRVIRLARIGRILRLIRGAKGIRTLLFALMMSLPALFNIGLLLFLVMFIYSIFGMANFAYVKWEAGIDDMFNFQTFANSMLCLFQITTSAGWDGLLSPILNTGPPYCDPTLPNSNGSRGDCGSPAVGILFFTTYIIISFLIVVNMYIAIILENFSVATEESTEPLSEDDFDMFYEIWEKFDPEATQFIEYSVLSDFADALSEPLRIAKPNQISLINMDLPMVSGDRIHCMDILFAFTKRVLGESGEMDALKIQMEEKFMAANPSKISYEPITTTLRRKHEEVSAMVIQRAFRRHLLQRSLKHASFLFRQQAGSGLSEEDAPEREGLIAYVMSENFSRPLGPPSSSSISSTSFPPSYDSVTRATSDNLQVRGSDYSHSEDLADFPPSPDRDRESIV
# method.summary: Nav 1.5 in vitro assay, IonWorks Quattro (IWQ) population patch-clamp
# Format: cell-based
# condition.context: HEK 293 cells stably transfected with Nav 1.5; 26th pulse to -20 mV
value.kind: IC50 (µM)
Return type: number; implicit unit µM.

These recorded examples may help you get a feel for the data.
molecule	IC50, µM
O=S(=O)(Nc1nccs1)c1ccc2c(c1)OCCN2c1ccccc1OC(F)F [Example 179, 2,2,2-Trifluoroacetate]	5.64
N#Cc1ccccc1N1CCOc2cc(S(=O)(=O)Nc3nccs3)ccc21 [Example 58, 2,2,2-Trifluoroacetate]	6.3
O=S(=O)(Nc1nccs1)c1ccc2c(c1)OCCN2c1ccc(OC(F)(F)C(F)F)cc1	5.81
COc1ccc(C#N)c(N2CCOc3cc(S(=O)(=O)Nc4nccs4)ccc32)c1	7.59
Cc1cc(OC(F)(F)F)ccc1N1CCOc2cc(S(=O)(=O)Nc3nccs3)ccc21	6.6
O=S(=O)(Nc1ccncn1)c1ccc2c(c1)OCCN2c1ccc(C(F)(F)F)cc1Br	7.93
O=S(=O)(Nc1nccs1)c1ccc2c(c1)OCCN2c1ccccc1C1=CCNCC1 [Example 59, 2,2,2-Trifluoroacetate]	5.57
N#Cc1ccc(F)cc1N1CCOc2cc(S(=O)(=O)Nc3nccs3)ccc21	3.62

Quick one: IC50 for CC[C@H]1CN(c2ccc(C(F)(F)F)cc2C#N)c2ccc(S(=O)(=O)Nc3nccs3)cc2O1 (single isomer, unassigned) ?
8.5

====

# system.under.test: Nav 1.5 (Homo sapiens (Human))
# method.summary: Nav 1.5 in vitro assay, IonWorks Quattro (IWQ) population patch-clamp
# Assay type: cell-based
# condition.context: HEK 293 cells stably transfected with Nav 1.5; 26th pulse to -20 mV
Item-by-item account of IC50
Value expressed in µM; do not type the unit.

compound	IC50 / µM
Cc1ccc(N2CCOc3cc(S(=O)(=O)Nc4nccs4)ccc32)cc1Cl [Example 163, 2,2,2-Trifluoroacetate]	3.14

// below: IC50 requested for another compound
Entry under review: O=S(=O)(Nc1nccs1)c1ccc2c(c1)OCCN2c1ccc(C(F)(F)F)cc1Br . Reported IC50?
1.85

====

# system.under.test: Nav 1.7 (Homo sapiens (Human), UniProt Q15858)
# Sequence (Q15858 whole entry): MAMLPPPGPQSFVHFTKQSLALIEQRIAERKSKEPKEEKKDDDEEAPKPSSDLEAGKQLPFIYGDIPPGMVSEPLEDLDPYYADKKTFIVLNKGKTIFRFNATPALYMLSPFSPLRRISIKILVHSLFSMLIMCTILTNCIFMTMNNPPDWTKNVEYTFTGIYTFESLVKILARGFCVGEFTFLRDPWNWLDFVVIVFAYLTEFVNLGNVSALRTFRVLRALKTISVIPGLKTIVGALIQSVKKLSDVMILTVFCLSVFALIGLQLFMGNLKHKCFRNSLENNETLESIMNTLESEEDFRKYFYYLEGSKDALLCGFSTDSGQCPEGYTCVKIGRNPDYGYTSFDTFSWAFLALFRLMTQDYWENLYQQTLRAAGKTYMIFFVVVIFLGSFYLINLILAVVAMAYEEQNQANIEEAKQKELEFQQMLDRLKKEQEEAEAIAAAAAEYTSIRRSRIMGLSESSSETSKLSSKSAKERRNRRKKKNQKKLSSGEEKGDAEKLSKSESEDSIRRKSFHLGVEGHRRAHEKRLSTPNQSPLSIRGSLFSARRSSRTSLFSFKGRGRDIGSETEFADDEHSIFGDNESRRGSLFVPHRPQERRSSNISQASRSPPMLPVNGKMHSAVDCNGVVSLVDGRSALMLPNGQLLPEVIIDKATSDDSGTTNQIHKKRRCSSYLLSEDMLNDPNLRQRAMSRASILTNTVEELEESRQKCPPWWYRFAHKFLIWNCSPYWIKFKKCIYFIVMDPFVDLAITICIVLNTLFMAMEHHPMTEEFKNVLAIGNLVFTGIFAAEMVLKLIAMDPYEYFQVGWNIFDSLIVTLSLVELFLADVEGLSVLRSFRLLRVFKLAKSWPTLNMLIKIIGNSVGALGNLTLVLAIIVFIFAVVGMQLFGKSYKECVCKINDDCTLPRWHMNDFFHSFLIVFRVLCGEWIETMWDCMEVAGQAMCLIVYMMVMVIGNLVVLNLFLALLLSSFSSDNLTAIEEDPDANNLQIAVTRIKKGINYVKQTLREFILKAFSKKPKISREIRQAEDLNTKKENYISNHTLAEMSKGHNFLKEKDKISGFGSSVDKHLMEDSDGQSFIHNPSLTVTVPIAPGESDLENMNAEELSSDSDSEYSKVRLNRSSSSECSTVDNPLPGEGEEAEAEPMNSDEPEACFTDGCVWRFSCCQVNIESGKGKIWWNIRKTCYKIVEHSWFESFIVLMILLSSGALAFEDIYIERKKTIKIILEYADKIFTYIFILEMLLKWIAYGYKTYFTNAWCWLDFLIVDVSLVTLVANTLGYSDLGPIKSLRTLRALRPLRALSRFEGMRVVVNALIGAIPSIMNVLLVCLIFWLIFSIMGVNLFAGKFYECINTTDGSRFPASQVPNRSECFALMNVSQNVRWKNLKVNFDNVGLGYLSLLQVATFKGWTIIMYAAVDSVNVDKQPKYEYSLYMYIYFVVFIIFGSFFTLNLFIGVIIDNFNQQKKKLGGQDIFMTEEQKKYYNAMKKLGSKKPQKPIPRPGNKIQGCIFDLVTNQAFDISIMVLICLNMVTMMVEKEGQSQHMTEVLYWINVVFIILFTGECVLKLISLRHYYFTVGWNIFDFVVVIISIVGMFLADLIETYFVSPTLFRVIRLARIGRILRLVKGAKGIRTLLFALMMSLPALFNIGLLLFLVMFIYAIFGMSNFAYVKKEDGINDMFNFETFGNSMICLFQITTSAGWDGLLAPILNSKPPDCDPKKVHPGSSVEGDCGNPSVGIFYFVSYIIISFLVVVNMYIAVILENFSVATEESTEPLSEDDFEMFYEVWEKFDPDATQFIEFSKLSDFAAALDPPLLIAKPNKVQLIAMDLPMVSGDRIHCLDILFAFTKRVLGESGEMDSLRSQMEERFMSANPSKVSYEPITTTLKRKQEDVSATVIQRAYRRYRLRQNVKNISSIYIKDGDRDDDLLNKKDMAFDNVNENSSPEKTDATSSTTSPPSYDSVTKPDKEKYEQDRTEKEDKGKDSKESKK
# method.summary: Nav 1.7 in vitro assay, IonWorks Quattro (IWQ) population patch-clamp
# Assay type: cell-based
# condition.context: HEK 293 cells stably transfected with Nav 1.7; 26th pulse to -20 mV
value.kind: IC50 (nM)

Here's what some known entries look like.
molecule	IC50 [nM]
O=S(=O)(Nc1ncns1)c1ccc2c(c1)OCCN2c1ccc(C(F)(F)F)cc1-c1ccncc1 [Example 26]	10.5
O=S(=O)(Nc1ccncn1)c1ccc2c(c1)OCCN2c1ncc(C(F)(F)F)cc1Cl [Example 99]	327
CN1CC=C(c2cc(C(F)(F)F)ccc2N2CCOc3cc(S(=O)(=O)Nc4nccs4)ccc32)CC1 [Example 44]	14
COc1cnc(N2CCOc3cc(S(=O)(=O)Nc4nccs4)ccc32)c(OC)c1 [Example 144]	894
O=S(=O)(Nc1ccncn1)c1ccc2c(c1)OCCN2c1ccc(C(F)(F)F)cc1C1=CCNCC1 [Example 45, 2,2,2-Trifluoroacetate]	6.2
COc1cc(Cl)ccc1N1CCOc2cc(S(=O)(=O)Nc3nccs3)ccc21 [Example 186]	11.5

a. O=S(=O)(Nc1nccs1)c1ccc2c(c1)OCCN2c1cncc(Cl)c1 [Example 130]
b. COc1ncc(C(F)(F)F)cc1N1CCOc2cc(S(=O)(=O)Nc3nccs3)ccc21 [Example 145]
From the recorded data, which exceeds the other in IC50: a or b ? Could you answer with the label of the item you picked?
a
(a: 635 nM, b: 235 nM)

A. O=S(=O)(Nc1cscn1)c1ccc2c(c1)OCCN2c1ccc(C(F)(F)F)cc1Cl [Example 11]
B. O=S(=O)(Nc1nccs1)c1ccc2c(c1)OCCN2c1ccc(Cl)cc1 [Example 40]
Between item A and item B , which reported IC50 is smaller? In your reply, give the label of the chosen option.
B
(B: 713 nM, A: 3210 nM)

I. O=S(=O)(Nc1nccs1)c1ccc2c(c1)OCCN2c1cccc(OC(F)F)c1 [Example 172, 2,2,2-Trifluoroacetate]
II. O=S(=O)(Nc1nccs1)c1ccc2c(c1)OCCN2c1ccc(C(F)(F)F)cc1Br [Example 43]
Determine, for I and II , which has the greater value of IC50. // return label of chosen record
I

====

# system.under.test: Nav 1.5 (Homo sapiens (Human), UniProt Q14524)
# method.summary: Nav 1.5 in vitro assay, IonWorks Quattro (IWQ) population patch-clamp
# Type: cell-based
# condition.context: HEK 293 cells stably transfected with Nav 1.5; 26th pulse to -20 mV
value.kind: IC50 (µM)
Write down the numeric answer in µM and omit the unit.

State the recorded IC50 for this entry: O=S(=O)(Nc1ncccn1)c1ccc2c(c1)OCCN2c1ccc(C(F)(F)F)cc1C1=CCNCC1
2.26

Which IC50 value belongs to O=S(=O)(Nc1nccs1)c1ccc2c(c1)OCCN2c1cccc2ccncc12 [Example 68, 2,2,2-Trifluoroacetate] ?
4.83

Need IC50, item N#Cc1cc(N2CCOc3cc(S(=O)(=O)Nc4nccs4)ccc32)ccc1F [Example 175, 2,2,2-Trifluoroacetate]
5.08

Which IC50 is reported for this compound? O=S(=O)(Nc1nccs1)c1ccc2c(c1)OCCN2c1ccc(C(F)(F)F)nc1
7.03

Record request: IC50 value, item O=S(=O)(Nc1nccs1)c1ccc2c(c1)OCCN2c1ccc(Cl)cc1CC(O)CO (centres unmarked)
6.11

====

# system.under.test: Nav 1.7 (Homo sapiens (Human), UniProt Q15858)
# method.summary: Nav 1.7 in vitro PX assay, PatchXpress whole cell voltage clamp
# Format: cell-based
# condition.context: HEK 293 cells stably transfected with human Nav1.7; partially inactivated state (20 to 50% inactivation)
pIC50: −log10 of the molar value.
value.kind: pIC50

Example entries begin here.
molecule	value.kind	value.measured
COc1cnc(N2CCOc3cc(S(=O)(=O)Nc4nccs4)ccc32)c(OC)c1	pIC50	5.12
Cc1ccc(F)c(N2CCOc3cc(S(=O)(=O)Nc4nccs4)ccc32)c1 [Example 80, 2,2,2-Trifluoroacetate]	pIC50	6.47

A. CCc1ccc(N2CCOc3cc(S(=O)(=O)Nc4nccs4)ccc32)c(C#N)c1
B. O=S(=O)(Nc1ncccn1)c1ccc2c(c1)OCCN2c1ccc(C(F)(F)F)cc1Cl
Could you kindly indicate whether A or B has the higher pIC50 value? Refer to your chosen entry by its label in the reply.
A
(A: 6.33, B: 4.92)

====

# system.under.test: Nav 1.5 (Homo sapiens (Human))
# method.summary: Nav 1.5 in vitro assay, IonWorks Quattro (IWQ) population patch-clamp
# Type: cell-based
# condition.context: HEK 293 cells stably transfected with Nav 1.5; 26th pulse to -20 mV
value.kind: pIC50
The meaning of pIC50 here: minus log10 of the concentration in molar units.

So what does the record say about pIC50 for CCc1ccc(N2CCOc3cc(S(=O)(=O)Nc4nccs4)ccc32)c(C#N)c1 ?
5.96

Quick check: pIC50 of N#Cc1ccccc1N1CCOc2cc(S(=O)(=O)Nc3ncns3)ccc21 ?
5.17

May I ask what pIC50 has been recorded for N#Cc1cc(-c2cccc(F)c2)ccc1N1CCOc2cc(S(=O)(=O)Nc3nccs3)ccc21 ?
6.07

# lookup: pIC50 of N#Cc1cc(Cl)ccc1N1CCOc2cc(S(=O)(=O)Nc3nccs3)ccc21
5.32

May I ask what pIC50 has been recorded for Cc1cc(N2CCOc3cc(S(=O)(=O)Nc4nccs4)ccc32)ccc1C#N ?
5.13

Reported pIC50 for O=S(=O)(Nc1ncns1)c1ccc2c(c1)OCCN2c1ccc(C(F)(F)F)cc1C1=CCNCC1 : what is it?
6.46

I am curious: what pIC50 value has been reported for Cc1cc(N2CCOc3cc(S(=O)(=O)Nc4nccs4)ccc32)cc(C)c1N(C)C [Example 161, 2,2,2-Trifluoroacetate] ?
5.46

Give its pIC50 value. Item: O=S(=O)(Nc1nccs1)c1ccc2c(c1)OCCN2c1ccc(C(F)(F)F)cc1CC(O)CO (racemic)
5.51

// query pIC50 value for entry Cc1cc(C(F)(F)F)ccc1N1CCOc2cc(S(=O)(=O)Nc3nccs3)ccc21
5.24

What value of measured pIC50 is listed for CN(C)CCn1ccc(NS(=O)(=O)c2ccc3c(c2)OCCN3c2ccc(C(F)(F)F)cc2Cl)n1 [Example 14, 2,2,2-Trifluoroacetate] ?
5.08
